# assayed_system: Aspartate--tRNA(Asp/Asn) ligase (Mycobacterium tuberculosis (strain ATCC 25618 / H37Rv)); further: in the data most compounds retested in dose-response had high values
# procedure_text: Assay for Asp RNA synthetase-1 from Mycobacterium tuberculosis
# Type: functional
# Parameters: scale not given: direction of the effect not stated beside the values
# condition_description: 30 µM
measured_parameter: Percent Effect (%)
Report only the number, with the unit % understood.

Before answering, review these 3 worked examples.
Cc1nc(CNC(=O)NCC(O)c2ccc(F)c(F)c2)cs1 (stereo not drawn); -2.91
CN1CCC(NC(=O)NCCNc2ccccn2)CC1; 0.524
COC(=O)C(NC(=O)C(C)C)c1cc(F)ccc1F (stereo not drawn); -0.455

The record that follows has no Percent Effect shown yet.
Return reported Percent Effect; argument: COCCN1C[C@H]2[C@@H](C1)N(Cc1ccc(C)o1)CC[C@H]2OC -3.26

----------
# assayed_system: Arginase-2, mitochondrial (Homo sapiens)
# Sequence (whole entry): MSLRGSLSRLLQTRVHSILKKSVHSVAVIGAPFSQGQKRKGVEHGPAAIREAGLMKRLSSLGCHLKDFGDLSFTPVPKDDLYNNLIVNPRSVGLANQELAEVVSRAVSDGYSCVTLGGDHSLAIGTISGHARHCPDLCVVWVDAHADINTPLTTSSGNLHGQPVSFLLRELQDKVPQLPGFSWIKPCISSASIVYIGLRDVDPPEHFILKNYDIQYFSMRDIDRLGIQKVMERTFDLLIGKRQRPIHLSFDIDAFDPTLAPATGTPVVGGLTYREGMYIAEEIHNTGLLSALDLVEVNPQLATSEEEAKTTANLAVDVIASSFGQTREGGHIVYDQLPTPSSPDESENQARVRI
# procedure_text: in vitro enzyme assay to detect the production of urea directly proportional to the activity of Arginase II; further: in the data most compounds retested in dose-response had high values
# Assay type: functional
# Set-up: scale not given: direction of the effect not stated beside the values
# condition_description: 33.3 µM
measured_parameter: Percent Effect (%)
Numeric only. Scale: %

Some entries whose results are on file:
c1cncc(CN2CC[C@H]3O[C@@H](COCC4CC4)CC[C@H]32)c1; 7.23
Cc1cccc(CN2C[C@H](NS(C)(=O)=O)[C@@H]3OCCC[C@@H]32)n1; -50
O=C(NC[C@]12COC[C@H]1CN(Cc1ccncc1)C2)c1ccco1; 4.43

GET /values?readout=Percent Effect&item= c1cnc(N2CCC3(CCN(CC4CCOC4)C3)CC2)nc1 (stereo not given) 0.405

# lookup: Percent Effect of Cn1cc(C(=O)N2CC[C@@H]3[C@@H]2CCN3Cc2cccnc2)cn1 0.955

----------
# assayed_system: Chromo domain-containing protein 1 (Saccharomyces cerevisiae (strain ATCC 204508 / S288c) (Baker's yeast)) (UniProt P32657)
# Sequence (P32657 whole entry, the tested form may be a part): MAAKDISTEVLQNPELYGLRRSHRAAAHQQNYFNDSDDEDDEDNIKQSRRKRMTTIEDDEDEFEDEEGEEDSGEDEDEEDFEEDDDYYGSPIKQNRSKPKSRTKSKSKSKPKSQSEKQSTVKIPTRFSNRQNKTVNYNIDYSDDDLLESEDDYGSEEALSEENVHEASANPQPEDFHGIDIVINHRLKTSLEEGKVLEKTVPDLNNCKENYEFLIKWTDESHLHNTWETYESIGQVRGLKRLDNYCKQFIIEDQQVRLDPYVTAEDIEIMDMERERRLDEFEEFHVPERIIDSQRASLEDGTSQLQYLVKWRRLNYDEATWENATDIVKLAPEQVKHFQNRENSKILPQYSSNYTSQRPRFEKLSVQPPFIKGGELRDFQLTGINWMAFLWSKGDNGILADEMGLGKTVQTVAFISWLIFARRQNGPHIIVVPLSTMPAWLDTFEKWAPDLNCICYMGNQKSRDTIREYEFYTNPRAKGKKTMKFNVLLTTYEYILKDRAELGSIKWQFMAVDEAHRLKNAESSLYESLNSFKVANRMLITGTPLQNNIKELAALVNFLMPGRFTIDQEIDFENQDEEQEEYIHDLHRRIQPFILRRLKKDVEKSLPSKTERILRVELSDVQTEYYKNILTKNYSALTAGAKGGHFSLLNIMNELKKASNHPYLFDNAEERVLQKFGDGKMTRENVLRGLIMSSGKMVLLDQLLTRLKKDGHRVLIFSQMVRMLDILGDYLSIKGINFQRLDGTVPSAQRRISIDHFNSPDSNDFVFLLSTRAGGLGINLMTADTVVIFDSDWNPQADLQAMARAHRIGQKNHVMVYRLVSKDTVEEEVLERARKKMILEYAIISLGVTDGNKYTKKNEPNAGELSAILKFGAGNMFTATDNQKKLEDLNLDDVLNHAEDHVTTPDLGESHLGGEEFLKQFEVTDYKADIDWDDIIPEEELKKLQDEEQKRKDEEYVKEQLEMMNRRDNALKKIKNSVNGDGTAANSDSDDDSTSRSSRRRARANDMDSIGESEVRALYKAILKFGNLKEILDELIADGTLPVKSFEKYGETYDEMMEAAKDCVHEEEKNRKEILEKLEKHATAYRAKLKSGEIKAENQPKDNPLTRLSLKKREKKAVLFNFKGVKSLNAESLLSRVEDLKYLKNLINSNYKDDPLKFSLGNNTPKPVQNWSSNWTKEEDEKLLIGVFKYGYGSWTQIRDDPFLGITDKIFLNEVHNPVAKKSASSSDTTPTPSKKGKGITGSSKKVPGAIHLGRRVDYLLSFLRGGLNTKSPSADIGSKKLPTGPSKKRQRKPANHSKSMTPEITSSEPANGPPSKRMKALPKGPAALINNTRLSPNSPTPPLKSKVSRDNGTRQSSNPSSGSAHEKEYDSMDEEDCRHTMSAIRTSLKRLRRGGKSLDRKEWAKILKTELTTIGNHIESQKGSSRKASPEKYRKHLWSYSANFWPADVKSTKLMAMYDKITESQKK
# procedure_text: ScCHD-1 Enzyme Inhibition Assay; further: in the data most compounds retested in dose-response had high values
# Type: functional
# Set-up: scale not given: direction of the effect not stated beside the values
# condition_description: 30 µM
Reported Percent Effect is given for each of the following compounds.
Value expressed in %; do not type the unit.

O=C1[C@H]2CN(CC3CC3)C[C@H]2CN1c1ccsc1; 5.84

Entry CCN1CCC2(CCC1=O)CN(c1ccnc(SC)n1)CCN2C (stereo not drawn) has what Percent Effect? -7.61

----------
# assayed_system: Shiga toxin 2 (Escherichia coli O157:H7) (UniProt P09385+P09386)
# procedure_text: E. coli 0.157:H7 Shiga Toxin SOP - stx2 screening assay
# Assay type: functional
# Parameters: scale not given: direction of the effect not stated beside the values
# condition_description: 30 µM
measured_parameter: Percent Effect (%)
Report as a plain number; the unit % is understood.

Solved entries (count: 5):
CSCCC(=O)N1CCCC1c1ccsc1 (stereo unspecified); 4.03
CN(C)C(=O)CC1CC2(CCN(C(=O)N(C)C)CC2)Oc2ccccc21 (stereo unspecified); -12.4
CN(Cc1cnn(C)c1)C(=O)Cn1c(CS(C)(=O)=O)nc2ccccc21; 1.77
COCC1CC2(CCN(C(=O)c3ccc(OC)c(Cl)c3)CC2)CO1 (stereo unspecified); -4.71
CC(c1ccc(F)cc1)N1CCN(Cc2ccc(C#N)cc2)CC1 (stereo unspecified); 24.7

Bench note: what Percent Effect did Cc1ccc(C(=O)N2CCN(CCc3cccs3)CC2)c(=O)[nH]1 show? -29.5

Which Percent Effect reading was recorded for the molecule COc1ccc(CN2CCCCC2CNC(=O)OC(C)(C)C)cc1F (stereo unspecified) ? 6.58

Which Percent Effect is reported for this molecule? CNC(=O)NC(=O)CN1CCC(c2cccc(F)c2)C1 (stereo unspecified) 19.2

Quick one: Percent Effect of COCc1noc(-c2ccc(N3CCCCC3CO)nc2)n1 (stereo unspecified) ? -5

I would be grateful if you could share the reported Percent Effect for COc1ccc(C2=C(C)C(N3CCc4ccccc4C3)=NS2(=O)=O)cc1 . -90

Consider the molecule shown here: O=C(c1cccc(S(=O)(=O)NCCCc2ncc[nH]2)c1)N1CCOCC1 What is its recorded Percent Effect? -13.2
